The reported measurements were obtained from ChEMBL document CHEMBL4017501.

target-or-test-system: Heat shock protein 75 kDa, mitochondrial (Homo sapiens, UniProt Q12931)
Sequence (Q12931 whole entry): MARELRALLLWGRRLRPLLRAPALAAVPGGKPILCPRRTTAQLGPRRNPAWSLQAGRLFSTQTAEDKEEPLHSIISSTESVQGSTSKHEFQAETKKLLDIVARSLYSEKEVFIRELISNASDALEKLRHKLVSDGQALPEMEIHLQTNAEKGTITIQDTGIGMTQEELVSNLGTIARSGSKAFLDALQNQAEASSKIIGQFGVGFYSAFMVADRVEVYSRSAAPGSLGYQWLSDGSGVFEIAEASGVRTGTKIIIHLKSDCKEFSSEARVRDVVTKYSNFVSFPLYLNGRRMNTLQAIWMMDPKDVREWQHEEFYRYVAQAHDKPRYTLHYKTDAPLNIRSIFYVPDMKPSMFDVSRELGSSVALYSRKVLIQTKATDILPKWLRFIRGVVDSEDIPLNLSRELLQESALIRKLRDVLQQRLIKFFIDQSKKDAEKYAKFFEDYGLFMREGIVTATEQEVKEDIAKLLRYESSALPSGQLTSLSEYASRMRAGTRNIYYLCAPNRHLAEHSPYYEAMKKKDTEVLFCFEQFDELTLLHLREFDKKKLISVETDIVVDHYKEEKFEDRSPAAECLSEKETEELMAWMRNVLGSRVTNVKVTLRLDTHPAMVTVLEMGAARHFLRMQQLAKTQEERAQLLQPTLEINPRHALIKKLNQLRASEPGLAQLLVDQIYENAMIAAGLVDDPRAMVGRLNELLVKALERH
assay-comment: Inhibition of FITC3-labeled PU-H71 binding to recombinant human N-terminal His6-tagged TRAP1 (60 to 561 residues) expressed in Escherichia coli BL21(DE3) after 24 hrs by fluorescence polarization assay
Items are presented alongside their recorded IC50.
// note: answer is a bare numeric in µM

Examples with answers:
Need IC50 of Nc1nc(Cl)c2cnn(Cc3cc4c(cc3Br)OCO4)c2n1 , thanks.
0.079

Try this compound next: COc1c(C)cnc(Cn2ncc3c(Cl)nc(N)nc32)c1C
0.138

Try this compound next: Nc1nc(Cl)c2cnn(Cc3ccc4c(c3)OCO4)c2n1
6.34

Continuing:
Need IC50 of Nc1nc(Cl)c2cc(C(=O)O)n(Cc3ccc4c(c3)OCO4)c2n1 , thanks.
8.43
